compounds and their reported pD2
Organism: Oryctolagus cuniculus
TEST DESCRIPTION: Apparent affinity was measured on the rabbit mesenteric vein.
Format: functional
Number only, no unit.

CSCC[C@H](NC(=O)[C@H](CC(C)C)NC(=O)CNC(=O)[C@H](Cc1ccccc1)NC(=O)[C@H](CC1CCCCC1)NC(=O)[C@H](CCC(N)=O)NC(=O)[C@H](CCC(N)=O)NC(=O)[C@@H]1CCCN1C(=O)[C@H](CCCCN)NC(=O)[C@@H]1CCCN1C(=O)[C@@H](N)CCCN=C(N)N)C(N)=O :: 6.66
COc1ccc(C[C@H](NC(=O)[C@H](Cc2ccccc2)NC(=O)[C@H](CCC(N)=O)NC(=O)[C@H](CCC(N)=O)NC(=O)[C@@H]2CCCN2C(=O)[C@H](CCCCN)NC(=O)[C@@H]2CCCN2C(=O)[C@@H](N)CCCN=C(N)N)C(=O)NCC(=O)N[C@@H](CC(C)C)C(=O)N[C@@H](CCSC)C(N)=O)cc1 :: 7.55

Task: Param item = `CSCC[C@H](NC(=O)[C@H](CC(C)C)NC(=O)CNC(=O)[C@H](CC(C)C)NC(=O)[C@H](Cc1ccccc1)NC(=O)[C@H](CCC(N)=O)NC(=O)[C@H](CCC(N)=O)NC(=O)[C@@H]1CCCN1C(=O)[C@H](CCCCN)NC(=O)[C@@H]1CCCN1C(=O)[C@@H](N)CCCN=C(N)N)C(N)=O` ; retrieve measured pD2.
Result: 6.92
